All figures here come from the supplement of paper PMC10065799.

molecular target: FGFR3 (UniProt P22607); test: phosphorylation enrichment, bacterial display (enrichment ratio); higher = better substrate or ligand; peptides without Tyr show the background;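 note: 11-residue human phosphosite peptides and single-mutation variants displayed on the E. coli surface, counted by deep sequencing, each peptide's frequency after selection divided by its frequency in the unselected input library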;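 note: frequency after pTyr selection over input frequency; kinase dosed for 20-30% of maximal phosphorylation in three min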
Sequence (P22607 whole entry, looked up): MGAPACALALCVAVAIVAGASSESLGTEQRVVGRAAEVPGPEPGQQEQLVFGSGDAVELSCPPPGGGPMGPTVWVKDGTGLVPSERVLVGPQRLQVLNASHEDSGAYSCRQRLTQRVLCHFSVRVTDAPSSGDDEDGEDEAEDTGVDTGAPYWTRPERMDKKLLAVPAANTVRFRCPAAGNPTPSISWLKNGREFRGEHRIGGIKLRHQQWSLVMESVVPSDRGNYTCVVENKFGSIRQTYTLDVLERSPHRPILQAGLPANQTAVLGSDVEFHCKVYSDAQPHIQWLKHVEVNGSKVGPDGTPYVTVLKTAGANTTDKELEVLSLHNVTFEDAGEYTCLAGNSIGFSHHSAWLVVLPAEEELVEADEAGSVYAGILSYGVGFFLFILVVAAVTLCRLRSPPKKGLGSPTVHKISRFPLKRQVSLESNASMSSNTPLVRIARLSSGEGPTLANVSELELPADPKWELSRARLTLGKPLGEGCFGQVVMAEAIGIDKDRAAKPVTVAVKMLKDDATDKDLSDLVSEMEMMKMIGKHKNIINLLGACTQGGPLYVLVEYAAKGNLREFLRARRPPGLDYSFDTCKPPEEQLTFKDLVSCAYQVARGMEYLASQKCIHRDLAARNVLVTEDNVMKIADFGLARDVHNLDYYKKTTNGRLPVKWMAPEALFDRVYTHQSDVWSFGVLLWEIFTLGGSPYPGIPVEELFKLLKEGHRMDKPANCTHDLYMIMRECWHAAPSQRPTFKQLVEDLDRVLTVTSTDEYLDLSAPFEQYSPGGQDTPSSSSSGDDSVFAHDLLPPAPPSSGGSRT
Parameter Measured: phosphorylation enrichment
Lab note: jot the number down without any unit.

Solved entries (count: 4):
- Chain Sequence: "PPPPAYDDVAQ [TNK2_Y635]"
  Parameter Measured: "phosphorylation enrichment"
  Quantitative Result: 0.591
- Chain Sequence: "FSVDGYDSSVR [KCNQ1_Y461]"
  Parameter Measured: "phosphorylation enrichment"
  Quantitative Result: 0.53
- Chain Sequence: "NDLMEYAKQHG [ASS1_Y163]"
  Parameter Measured: "phosphorylation enrichment"
  Quantitative Result: 0.563
- Chain Sequence: "YETSHYLASPD [CTNND2_Y1217_P1218L]"
  Parameter Measured: "phosphorylation enrichment"
  Quantitative Result: 0.633

phosphorylation enrichment recorded for this sequence, LERYIYNREEL [HLA-DPB1_Y59_F64L] , is 0.58

phosphorylation enrichment recorded for this sequence, SVIVPYEPPEV [TP53_Y220_V217I] , is 0.81

phosphorylation enrichment recorded for this sequence, VTQEQYELYCE [CBL_Y368] , is 0.894

phosphorylation enrichment recorded for this sequence, TSESSYFKSLN [NGEF_Y288_A286S_YF] , is 0.705
